Can you tell me AC50 for the items I'm about to list?
Molecular target: Trypsin (Sus scrofa, UniProt P00761)
Sequence (P00761 whole entry): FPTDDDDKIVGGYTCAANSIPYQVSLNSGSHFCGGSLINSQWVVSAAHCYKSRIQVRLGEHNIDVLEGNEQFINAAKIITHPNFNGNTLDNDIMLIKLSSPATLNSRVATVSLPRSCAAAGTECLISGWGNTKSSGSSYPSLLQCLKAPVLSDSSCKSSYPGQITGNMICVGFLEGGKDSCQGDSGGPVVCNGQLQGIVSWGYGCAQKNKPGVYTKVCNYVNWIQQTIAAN
Experiment: trypsin protease activity blockade – biochemical, quenched peptide fluorescence, cherry-pick, selectivity assay for Rce1 protease inhibitor project, dose response (AID 488789)
Active and inactive are the calls of the source.

For orientation, consider the following solved cases.
compound | result
CCCCn1c(S)nnc1-c1sccc1C | 10 µM (active)
O=C(O)c1cc(-c2ccc(N3CCOCC3)cc2)nn1-c1ccc(F)cc1F | 6.65 µM (active)
COc1ccccc1-c1coc2c(CN3CCN(C)CC3)c(O)ccc2c1=O | 28.3 µM (active)

Note down AC50 recorded for CN1C(=O)c2ccccc2N(C)C1c1ccccc1Cl (centres undefined) 9.6 µM (active)

----------
Molecular target: Tyrosine-protein phosphatase non-receptor type 5 (Homo sapiens, UniProt P54829)
Sequence (P54829 whole entry): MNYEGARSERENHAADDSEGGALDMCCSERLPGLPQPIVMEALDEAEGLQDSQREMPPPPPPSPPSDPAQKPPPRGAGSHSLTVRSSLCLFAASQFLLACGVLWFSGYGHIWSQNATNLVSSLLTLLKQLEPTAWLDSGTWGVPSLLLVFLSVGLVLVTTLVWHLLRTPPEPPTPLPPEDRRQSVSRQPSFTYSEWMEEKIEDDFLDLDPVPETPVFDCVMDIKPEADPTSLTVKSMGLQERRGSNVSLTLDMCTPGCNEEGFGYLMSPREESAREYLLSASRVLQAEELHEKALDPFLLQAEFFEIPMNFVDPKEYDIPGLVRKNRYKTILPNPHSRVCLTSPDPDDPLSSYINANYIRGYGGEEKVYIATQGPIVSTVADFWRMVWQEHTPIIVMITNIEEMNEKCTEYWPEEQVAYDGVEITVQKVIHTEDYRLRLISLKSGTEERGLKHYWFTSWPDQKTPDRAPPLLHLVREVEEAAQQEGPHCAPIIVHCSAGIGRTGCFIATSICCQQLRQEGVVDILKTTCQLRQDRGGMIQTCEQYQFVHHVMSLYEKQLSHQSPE
Experiment: PTPN5 enzyme inhibition – biochemical, fluorescence intensity, uHTS hits, confirmation (AID 602372)
Assay type: functional
Conditions: read-out: IC50_Mean
The source made the active and inactive calls.
Result category, one only: True = active, False = inactive

molecule | classification
Cc1ccc(-n2c(C)nc3oc4ccccc4c(=O)c3c2=O)cc1 | True

Test call, this compound: CC(=O)N1CCC(N(CCN2CCOCC2)C(=S)Nc2ccc(C)cc2)CC1 False

Just curious, what result did COc1ccccc1NS(=O)(=O)c1cc(NC(=O)c2sccc2C)ccc1N1CCCC1 get here? True

Recorded call for CCOc1ccc(C(=S)N2CCN(C)CC2)cc1 ? False

----------
What IC50 was measured for each of the following?
Biological target: Large T antigen (Simian virus 40);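 note: Confirmatory-stage PubChem screen for compounds that inhibit SV40 T antigen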
Sequence (P03070 whole entry): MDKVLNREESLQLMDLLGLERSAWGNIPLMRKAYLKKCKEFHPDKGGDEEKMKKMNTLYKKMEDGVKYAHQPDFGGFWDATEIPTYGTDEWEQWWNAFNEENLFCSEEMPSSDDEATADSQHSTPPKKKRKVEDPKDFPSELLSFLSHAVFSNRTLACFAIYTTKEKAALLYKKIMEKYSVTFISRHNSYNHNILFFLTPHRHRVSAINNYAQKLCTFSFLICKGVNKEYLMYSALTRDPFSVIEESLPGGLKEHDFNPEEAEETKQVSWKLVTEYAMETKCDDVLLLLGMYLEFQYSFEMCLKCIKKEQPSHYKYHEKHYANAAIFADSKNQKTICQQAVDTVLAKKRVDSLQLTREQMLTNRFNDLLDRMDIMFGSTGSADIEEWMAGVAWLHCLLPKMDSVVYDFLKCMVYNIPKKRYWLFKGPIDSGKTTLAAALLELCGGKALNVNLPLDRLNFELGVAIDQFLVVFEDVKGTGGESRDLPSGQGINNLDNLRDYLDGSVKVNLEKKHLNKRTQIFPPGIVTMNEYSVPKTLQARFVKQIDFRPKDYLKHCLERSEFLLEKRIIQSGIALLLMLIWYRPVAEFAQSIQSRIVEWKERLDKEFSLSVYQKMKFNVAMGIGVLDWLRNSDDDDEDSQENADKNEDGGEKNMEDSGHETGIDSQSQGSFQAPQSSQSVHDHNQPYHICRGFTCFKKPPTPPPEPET
Type: functional, Betapolyomavirus macacae
Activity calls are given as the source filed them.

molecule | reported-property | result
O=c1oc2cc(O)ccc2c2ccccc12 | IC50 | 38.8 µM (active)

I'm hoping you can list IC50 for every compound here, please.
1. Cc1cc(=O)oc2c(N)c(O)ccc12
2. CC(C)c1ccc(S(=O)(=O)N2CCN(CCC(=O)Nc3ccc(N(C)C)cc3)CC2)cc1

1. 0.77 µM (active)
2. 15.1 µM (active)

Batch: IC50 for all items listed.
1. Cc1ccc(/C=N\NC(=O)COc2ccc(C)cc2[N+](=O)[O-])cc1
2. COc1cc(/C=N/NC(=S)NCCN2CCOCC2)ccc1O

["> 100 µM (active)", "6.95 µM (active)"]

----------
For each of the compounds below, state its AC50.
Biological target: UniProt P05177
Sequence (P05177 whole entry): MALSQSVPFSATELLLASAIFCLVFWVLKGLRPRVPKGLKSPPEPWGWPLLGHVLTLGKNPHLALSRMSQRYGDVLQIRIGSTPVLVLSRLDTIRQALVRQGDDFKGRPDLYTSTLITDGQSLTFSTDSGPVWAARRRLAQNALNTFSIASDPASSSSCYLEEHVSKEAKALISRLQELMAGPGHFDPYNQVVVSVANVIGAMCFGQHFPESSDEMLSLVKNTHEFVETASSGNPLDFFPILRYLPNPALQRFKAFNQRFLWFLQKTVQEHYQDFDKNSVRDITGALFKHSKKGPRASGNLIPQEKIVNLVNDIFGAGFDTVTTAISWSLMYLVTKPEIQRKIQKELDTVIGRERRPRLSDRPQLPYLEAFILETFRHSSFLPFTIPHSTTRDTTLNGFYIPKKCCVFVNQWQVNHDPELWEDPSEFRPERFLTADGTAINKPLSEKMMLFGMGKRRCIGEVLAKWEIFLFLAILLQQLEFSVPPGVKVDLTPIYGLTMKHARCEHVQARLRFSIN

molecule | AC50
CC[N+](CC)(CC)CCOc1ccc(/C=C\c2ccccc2)cc1 | 31.6 µM (inconclusive)
CC(=O)NC(NC(C)=O)c1ccc(Br)cc1 | 10 µM (inconclusive)
COc1cccc(Cn2c(=O)c(-c3cccs3)nc3cnc(N(C)C)nc32)c1 | 15.8 µM (inconclusive)
O=C(Cc1ccccc1[N+](=O)[O-])NCCSCc1c(F)cccc1Cl | 5.62 µM (inconclusive)
Cc1cc(C(=O)N[C@@H](c2ccccc2)[C@]2(C)C[C@H]2[C@@H](C)C(=O)Nc2ccc3ccccc3c2)n(C)n1 | 12.6 µM (inconclusive)
Cn1cccc1C(=O)N1CCC2(CC1)CN(Cc1cc(C(F)(F)F)cc(C(F)(F)F)c1)C2 | 10 µM (inconclusive)

List the reported AC50 of each compound below.
1. CCOC(=O)c1ccc(NC(=NS(=O)(=O)c2ccccc2C)c2ccccc2)cc1
2. COc1ccccc1-n1c(SCC(=O)Nc2ccccc2F)nc2nncc-2c1O
3. COc1ccccc1CNC(=O)c1cc2c(C)nn(Cc3ccc(F)cc3)c2s1
4. Cc1cc(OCc2nc(N)nc(N)c2-c2ccc(Cl)c(Cl)c2)ccc1[N+](=O)[O-]
5. COc1ccc2nc(NC(=O)C3CCN(S(=O)(=O)c4cccc5nsnc45)CC3)sc2c1
6. O=c1c(-c2cc(F)cc(F)c2)nc2cncnc2n1Cc1ccccc1Cl
7. O=C(c1ccc2c(=O)n(Cc3ccco3)c(=S)[nH]c2c1)N1CCN(c2ccccc2)CC1
8. Cn1cc(-c2nc3cnc(N4CCNCC4)nc3n(Cc3ccc(F)cc3)c2=O)c2ccccc21

25.1 µM (inconclusive)
28.2 µM (inconclusive)
31.6 µM (inconclusive)
5.01 µM (inconclusive)
3.16 µM (inconclusive)
5.01 µM (inconclusive)
3.16 µM (inconclusive)
20 µM (inconclusive)

----------
Target: Serine/threonine-protein phosphatase (Candida dubliniensis (strain CD36 / CBS 7987 / NCPF 3949 / NRRLY-17841) (Yeast))
Sequence (B9W6M3 whole entry): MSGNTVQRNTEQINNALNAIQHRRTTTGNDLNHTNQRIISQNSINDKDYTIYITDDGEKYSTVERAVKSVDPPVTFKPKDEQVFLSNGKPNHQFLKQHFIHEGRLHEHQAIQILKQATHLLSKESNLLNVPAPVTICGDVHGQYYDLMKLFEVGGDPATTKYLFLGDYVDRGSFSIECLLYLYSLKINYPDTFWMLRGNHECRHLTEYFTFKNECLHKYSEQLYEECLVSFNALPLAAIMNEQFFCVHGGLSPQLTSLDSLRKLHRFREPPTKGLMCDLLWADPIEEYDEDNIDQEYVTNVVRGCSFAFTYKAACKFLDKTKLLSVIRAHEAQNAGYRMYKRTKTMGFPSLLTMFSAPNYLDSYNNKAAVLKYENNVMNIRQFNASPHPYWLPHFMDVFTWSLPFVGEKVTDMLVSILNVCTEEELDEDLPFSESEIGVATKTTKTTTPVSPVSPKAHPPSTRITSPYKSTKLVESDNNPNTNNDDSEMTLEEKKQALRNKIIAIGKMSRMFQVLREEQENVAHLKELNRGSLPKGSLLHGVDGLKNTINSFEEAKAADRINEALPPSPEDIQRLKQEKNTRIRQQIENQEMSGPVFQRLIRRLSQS
Experiment: blockers of CaCl2-induced CDRE-lacZ signaling – S. cerevisiae, luminescence, secondary, dose response (AID 2388);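 note: yeast reporter cells carrying a calcineurin-responsive lacZ construct stimulated with calcium chloride; luminescent beta-galactosidase reporter signal in whole cells rather than isolated phosphatase activity; potency for inhibition where a drop in reporter signal means calcineurin blockade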
Type: functional, cell-based
Calls of active or inactive are those of the source.
Can you answer with just one of these options? active, inactive

Answered cases to consult:
compound | classification
CCC(=O)NC(c1ccc(C)cc1)c1cc([N+](=O)[O-])c2cccnc2c1O (configuration not stated) | inactive
C=CCn1c(N)nc2ccccc21 | inactive
O=C(O)c1ccccc1-c1ccccc1C(=O)Nc1cccc(-c2nc3ccccc3o2)c1 | inactive
O=C(NCc1ccccc1)c1sc(=S)n2c1[nH]c(=O)c1ccccc12 | inactive
O=C(CCc1ccccc1)NNC(=S)NC(=O)c1ccccc1 | active
CCCCc1c(O)n(-c2ccccc2OC)c(SCC(=O)Nc2cccc3ccccc23)nc1=O | inactive

Status in this test for CC1(O)CC(c2ccc(Cl)cc2)=NN1C(=O)c1ccc([N+](=O)[O-])cc1 (configuration not stated) ? inactive

----------
Molecular target: Alkaline phosphatase, tissue-nonspecific isozyme (Homo sapiens, UniProt P05186)
Sequence (P05186 whole entry): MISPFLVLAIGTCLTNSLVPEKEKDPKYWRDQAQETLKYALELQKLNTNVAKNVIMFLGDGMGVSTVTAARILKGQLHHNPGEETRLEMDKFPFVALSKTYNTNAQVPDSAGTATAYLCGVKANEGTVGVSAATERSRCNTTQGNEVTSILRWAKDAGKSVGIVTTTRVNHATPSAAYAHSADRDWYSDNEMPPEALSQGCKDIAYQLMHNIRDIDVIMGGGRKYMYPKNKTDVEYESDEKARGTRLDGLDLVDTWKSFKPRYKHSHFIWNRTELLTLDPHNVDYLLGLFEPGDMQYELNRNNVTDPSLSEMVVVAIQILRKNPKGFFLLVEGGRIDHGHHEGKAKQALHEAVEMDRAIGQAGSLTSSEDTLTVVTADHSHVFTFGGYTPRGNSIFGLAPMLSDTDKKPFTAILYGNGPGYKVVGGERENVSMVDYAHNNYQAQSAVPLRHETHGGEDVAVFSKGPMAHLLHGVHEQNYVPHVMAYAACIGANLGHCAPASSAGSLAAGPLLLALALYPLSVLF
Assay: potency against alkaline phosphatase TNAP – biochemical, luminescent, dose response, SAR follow-up (AID 1056)
Active and inactive are the calls of the source.
Return exactly one item of active, inactive

Past entries and their recorded results:
compound | classification
Cc1cc(O)oc2nnc(-c3ccccc3)c1-2 | active
CCOC(=O)c1cc(-c2ccc3c(c2)OCCO3)n[nH]1 | active
CC(=O)Nc1n[nH]c(SCc2ccc(Br)cc2)n1 | inactive
COC(=O)c1cc(-c2ccc(C)cc2C)n[nH]1 | active

What is the recorded call for this compound in the test? O=C(NCCc1ccc(O)c(O)c1)C1CCCO1 (centres undefined) inactive

Call for entry Cc1nccn1CC(=O)c1ccc(O)c(O)c1 : active

----------
Target: Alkaline phosphatase, placental type (Homo sapiens)
Sequence (P05187 whole entry): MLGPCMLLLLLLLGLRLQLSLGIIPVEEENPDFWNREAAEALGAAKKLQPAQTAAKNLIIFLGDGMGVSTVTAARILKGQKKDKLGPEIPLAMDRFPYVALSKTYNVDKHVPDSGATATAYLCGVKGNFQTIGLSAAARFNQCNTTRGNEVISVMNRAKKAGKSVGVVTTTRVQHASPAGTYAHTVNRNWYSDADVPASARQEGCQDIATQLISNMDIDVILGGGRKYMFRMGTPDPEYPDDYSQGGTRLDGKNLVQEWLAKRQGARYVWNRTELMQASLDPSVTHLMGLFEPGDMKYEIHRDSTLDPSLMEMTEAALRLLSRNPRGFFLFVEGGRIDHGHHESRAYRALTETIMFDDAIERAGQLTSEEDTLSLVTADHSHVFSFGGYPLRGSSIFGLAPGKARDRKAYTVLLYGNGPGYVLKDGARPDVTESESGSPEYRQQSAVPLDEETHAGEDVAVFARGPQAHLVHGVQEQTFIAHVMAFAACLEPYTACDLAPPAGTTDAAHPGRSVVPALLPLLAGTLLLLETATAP
Test: human placental alkaline phosphatase inhibition – biochemical, luminescence, confirmation (AID 1512)
Assay type: functional
Calls of active or inactive are those of the source.
Respond with a class label; see active, inactive

Example entries and their recorded answers appear below.
compound | classification
Cc1nccn1CC(=O)c1ccc(O)c(O)c1 | active
Cc1cc(O)oc2nnc(-c3ccccc3)c1-2 | inactive
C=CCn1c(SCC(=O)c2ccc(O)c(O)c2)nnc1-c1cccc(C)c1 | active

Please turn your attention to the following entry.
How was O=C(NCCc1ccc(O)c(O)c1)C1CCCO1 (centres undefined) classified in this test? active
